B1: HDV Ribozyme (parent)
chain: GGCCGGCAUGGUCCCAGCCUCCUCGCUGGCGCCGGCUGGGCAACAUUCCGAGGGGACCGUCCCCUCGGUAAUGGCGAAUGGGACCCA

Variants of: B1
procedure.details: self-cleavage, relative activity (ratio to wild type); higher = more cleavage; co-transcriptional
Classify by self-cleavage. Ranges: group 1: < 0.2; group 2: ≥ 0.2 and < 0.5; group 3: ≥ 0.5

- ordered.residues: "UGCCGGCAUGGUCCCAGCCUCCUCGCUGGCGCCGGCUGGGCAACAUUACGAGGGGACCGUCCCCUCGGUAAUGGCGAAUGGGACCCA [G1U C48A]"
  qualitative.label: "group 2"
- ordered.residues: "GGCCGGCAUGGUCCAAGCCUCCUCGCUGGCGCCGGCUGGGCAACAUUCCGAGGGGACCGUCCCCUAGGUAAUGGCGAAUGGGACCCA [C15A C66A]"
  qualitative.label: "group 3"
- ordered.residues: "GGCCGGCAUGGUCCCAGCCUCCUCGCUGGCGCCGGCUGGGCAACAUUCCGAGGGGACCGUCCCCUGGGUAAUUGCGAAUGGGACCCA [C66G G73U]"
  qualitative.label: "group 2"
- ordered.residues: "GGCCGGCAUGGUCCCAGCCUCCUCGCUGGCGCCGGCUGGGCAACAUUACGAGGGGACCCUCCCCUCGGUAAUGGCGAAUGGGACCCA [C48A G59C]"
  qualitative.label: "group 3"
- ordered.residues: "GGUCGGCAUUGUCCCAGCCUCCUCGCUGGCGCCGGCUGGGCAACAUUCCGAGGGGACCGUCCCCUCGGUAAUGGCGAAUGGGACCCA [C3U G10U]"
  qualitative.label: "group 2"
- ordered.residues: "GGCCGGCAUGGUCCCAGCCUCCUCGCUGGCGCCGUCUGGGCAACAUUCCGAGGGGACCCUCCCCUCGGUAAUGGCGAAUGGGACCCA [G35U G59C]"
  qualitative.label: "group 3"

Q. Given GGCCGGCAUGGUCCCAGCCUCCUCGCUGGCGCCGGCUGGGCAACAUUCCGAGGGUACCGACCCCUCGGUAAUGGCGAAUGGGACCCA [G55U U60A] , name the class its self-cleavage places it in.
A. group 3

Q. Which class is correct for the following variant? GGCCGGCAUGGUCCCAGCCUCCUCGCUGGCGCCGGCUGGGCAACAUUCCGAGGGGACCGUCCCCUCGGUAUUGGCGAAUAGGACCCA [A71U G80A]
A. group 1

Q. Form: Item = GGCCGGUAUGGUCCCAGCCUCCUCGCUGGCGCCGGCUGGGCAACAUUCCGAGGGGACCGUCCCCUCGGUAUUGGCGAAUGGGACCCA [C7U A71U] ; Class = ?
A. group 3

Q. Quick check: band for GGCCGGCAUGGUCCCAUCCUCCUCGCUGGCGCCGGCUGGGCGACAUUCCGAGGGGACCGUCCCCUCGGUAAUGGCGAAUGGGACCCA [G17U A42G]
A. group 1

Q. Which band does GGCCGGCAUGGUCCCAGCCUCCUCGCUGGCGCCGGCUGGGCAACAUUCAGAGGGGACCGUCCCCUCGGUAAUGGCGAAUGGCACCCA [C49A G82C] fall in?
A. group 2

Q. Please report the category associated with GGCCGGCAUGGUCCCAGCCUCCUCGCUGGCGCCGGCUGGGCAACAUUCCGCGGGGACCGUCCCCUCGGUAAUGGCGCAUGGGACCCA [A51C A77C] , nothing else.
A. group 2

Q. # bin lookup: classify GGCCGGCAUGGUCCCAGUCUCCUCGCUGGCGCCGGCUGGGCAACAUUCCGAGGGGACCGUCCACUCGGUAAUGGCGAAUGGGACCCA [C18U C63A] by its self-cleavage
A. group 2

Q. Lab note: which band did GGCUGGCAUGGUCCCAGCCUCCUCGCUGGCGCCGGGUGGGCAACAUUCCGAGGGGACCGUCCCCUCGGUAAUGGCGAAUGGGACCCA [C4U C36G] land in?
A. group 1

Q. Exercise: read the entry GGCCGGCAUGGUCCCAGCCUCCUCGCUGGCGCCGGCUGGGCAAUAUUCCGAGGGGACCGUCCCCUCGGUAAUCGCGAAUGGGACCCA [C44U G73C] and state which class it falls under.
A. group 2

Q. Exam item: assign GGCCGGCAUGGUCCCAGCCUCCUCGCUGGCGCCGGCUGGGGAACAUUCCGAGGGGACCGUCCCCUCGGUAUUGGCGAAUGGGACCCA [C41G A71U] to the correct category.
A. group 3

Q. Returns: class label. Input: GGACGGCAUGGUCCCAGCCUCCUCGCUGGCGCCGGCUGGGCAACAUGCCGAGGGGACCGUCCCCUCGGUAAUGGCGAAUGGGACCCA [C3A U47G]
A. group 2
